read-out: Interferon-gamma inducible Protein 10 (IP10), CXCL10 (gene 3627); assay: BSK_KF3CT_IP10: BioMAP Diversity Plus: KF3CT Assay for Interferon-gamma inducible Protein 10 (IP10) Biomarker Activity (AID 2283068); settings: primary human keratinocytes with fibroblasts; actives raise or lower the signal
Active and inactive are the calls of the source. Rule for the calls: active = hit-call score of the fitted dose curve at least 0.9, where 1 is the maximum; inactive = score below 0.9.
Choose one outcome from this list and give only that: 1.0 = active, 0.0 = inactive

[[record]]
compound = "CC(C)(C)c1csc(-c2cc3cc(OCc4ccccc4CC(=O)O)ccc3o2)n1"
class_assignment = 1.0

[[record]]
compound = "CN(C)C(=O)C1(N2CCCCC2)CCN(CC[C@@]2(c3ccc(Cl)c(Cl)c3)CN(C(=O)c3ccccc3)CCO2)CC1"
class_assignment = 1.0

[[record]]
compound = "O=c1[nH]sc2ccccc12"
class_assignment = 1.0

[[record]]
compound = "CC1=CC(=O)/C(=C(/C)O)C(=O)O1"
class_assignment = 0.0

[[record]]
compound = "Clc1cc(Cl)c2c(c1)N=C1CCCCCN1C2"
class_assignment = 0.0


*Q* Answer briefly: the call reported for `O=c1c(-c2ccc(O)cc2)coc2cc(O)cc(O)c12` in this assay.
*A* 0.0

*Q* // return assay outcome for `CCN(Cc1cccnc1)C(=O)c1cccc(Cl)c1[C@]1(C)C(=O)N(Cc2ccc(OC)cc2OC)c2ccc(Cl)cc21`
*A* 1.0

*Q* Please state the recorded outcome for this compound: `CCN(CC)C(=O)c1cc(S(=O)(=O)Cc2ccccc2)c(N2CCC(c3ccccc3)CC2)cc1N(CC)CCN(C)C`
*A* 0.0

*Q* Each compound tested received a call. Report the one for OC12N=C(c3ccccc3)SC1Cc1cc(Cl)ccc12 (stereo not given) .
*A* 0.0

*Q* In this assay, the call recorded for `O=C(OCCCCCCOC(=O)c1ccccc1)c1ccccc1` was what?
*A* 0.0

---

target: Cellular tumor antigen p53 (Homo sapiens) (UniProt P04637); assay: ATG_p53_CIS: Attagene CIS-FACTORIAL HepG2 Assay for human p53 Transcription Factor (AID 2282994); settings: HepG2 p53 cis-element reporter, Attagene mRNA; actives raise or lower the signal
Sequence (P04637 whole entry, looked up): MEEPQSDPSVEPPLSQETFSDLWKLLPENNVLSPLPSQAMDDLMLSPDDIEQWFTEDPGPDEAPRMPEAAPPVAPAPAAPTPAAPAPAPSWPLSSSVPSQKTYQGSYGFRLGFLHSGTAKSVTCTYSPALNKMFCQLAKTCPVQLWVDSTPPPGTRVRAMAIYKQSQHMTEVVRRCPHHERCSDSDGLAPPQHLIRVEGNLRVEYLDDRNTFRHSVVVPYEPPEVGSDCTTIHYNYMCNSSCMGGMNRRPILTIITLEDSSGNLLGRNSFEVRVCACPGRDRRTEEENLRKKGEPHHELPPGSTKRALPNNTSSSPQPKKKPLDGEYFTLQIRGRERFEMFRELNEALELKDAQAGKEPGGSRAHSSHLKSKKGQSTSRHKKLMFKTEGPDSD
Calls of active or inactive are those of the source. How the source made its calls: active means hit-call score of the fitted dose curve at least 0.9, where 1 is the maximum; inactive means score below 0.9.
OBSERVED_PROPERTY: outcome

[[record]]
compound = "CCOC(=O)O[C@H](C)OC(=O)c1ccc2c(c1)cc(C(=O)NC1CCN(C(C)C)CC1)n2Cc1cc(-c2ccc(Cl)s2)on1"
experimental_result = "inactive"

[[record]]
compound = "OC12N=C(c3ccccc3)SC1Cc1cc(Cl)ccc12 (stereo not drawn)"
experimental_result = "inactive"

[[record]]
compound = "CN1C(=O)CC[C@H]1c1cccnc1"
experimental_result = "inactive"


---

read-out: Monokine induced gamma interferon (MIG), CXCL9 (gene 4283); experiment: BSK_hDFCGF_MIG: BioMAP Diversity Plus: hDFCGF Assay for Monokine induced gamma interferon (MIG) Biomarker Activity (AID 2283063); conditions: primary human foreskin fibroblasts; actives raise or lower the signal
Active and inactive are the calls of the source. How the source made its calls: active means hit-call score of the fitted dose curve at least 0.9, where 1 is the maximum; inactive means score below 0.9.
OBSERVED_PROPERTY: AC50

Please review the following examples before continuing.
[[record]]
sample_smiles = "Cc1cn([C@H]2C[C@H](N=[N+]=[N-])[C@@H](CO)O2)c(=O)[nH]c1=O"
observed_property = "AC50"
experimental_result = "inactive"

[[record]]
sample_smiles = "CC1=CC(=O)/C(=C(/C)O)C(=O)O1"
observed_property = "AC50"
experimental_result = "inactive"

[[record]]
sample_smiles = "CCCCCCCCCCCCO"
observed_property = "AC50"
experimental_result = "33.3 µM (active)"

[[record]]
sample_smiles = "O=C(O)c1ccccc1-n1cc(C(=O)O)c(=O)c2cc(Nc3c(F)cc(F)cc3Cl)c(Cl)cc21"
observed_property = "AC50"
experimental_result = "inactive"

[[record]]
sample_smiles = "CCCCCCCCCCCC[N+](C)(C)C"
observed_property = "AC50"
experimental_result = "30.6 µM (active)"


What the record says about `CC(C)(C)c1csc(-c2cc3cc(OCc4ccccc4CC(=O)O)ccc3o2)n1` : AC50 is 15.2 µM (active)

Short answer for `O=C1c2ccccc2C(=O)N1CCc1noc(-c2ccc(CN3CCCCCC3)s2)n1` : AC50 was inactive

The recorded AC50 for `Clc1ccccc1C(c1ccccc1)(c1ccccc1)n1ccnc1` is 8.88 µM (active)

Per the record, `CC[C@H](NC(=O)c1cc(F)ccc1NS(=O)(=O)c1cccc2cccnc12)c1ccccc1` has AC50 of inactive
